List of MIC values.
Tested on: S. pneumoniae SP030

substance smiles	target entity	MIC
CC[C@@H]1OC(=O)[C@H](C)[C@H](O[C@H]2C[C@](C)(OC)[C@@H](OCCN(C)CCNc3cc4c(cc3F)c(=O)c(C(=O)O)cn4C3CC3)[C@@H](C)O2)[C@@H](C)[C@H](O[C@H]2O[C@@H](C)C[C@@H](N(C)C)[C@H]2O)[C@](C)(OC)C[C@H](C)C(=O)[C@H](C)[C@H]2OC(=O)O[C@@]12C	S. pneumoniae SP030	≤ 1 µg/mL
CC[C@@H]1OC(=O)[C@H](C)[C@H](O[C@@H]2C[C@](C)(OC)[C@H](OCCCN(C)CCNc3nc4c(cc3F)c(=O)c(C(=O)O)cn4CC)[C@H](C)O2)[C@@H](C)[C@H](O[C@H]2O[C@@H](C)C[C@@H](N(C)C)[C@H]2O)[C@](C)(OC)C[C@H](C)C(=O)[C@H](C)[C@H]2OC(=O)O[C@@]12C	S. pneumoniae SP030	≤ 1 µg/mL

Q: For the record `CC[C@@H]1OC(=O)[C@H](C)[C@H](O[C@@H]2C[C@](C)(OC)[C@H](OCCCN(C)CCCc3ccc4c(c3)c(=O)c(C(=O)O)cn4CC)[C@H](C)O2)[C@@H](C)[C@H](O[C@H]2O[C@@H](C)C[C@@H](N(C)C)[C@H]2O)[C@](C)(OC)C[C@H](C)C(=O)[C@H](C)[C@H]2NC(=O)O[C@@]12C` , what value of MIC is listed for S. pneumoniae SP030?
Result: ≤ 1 µg/mL

Ref: patent US7569550B2
